System: NCI-H460
ASSAY_EXPLANATION: Inhibitory activity against NCI-H460 cell line using MTT assay(Wild type p53)
Type: functional, cell-based
TEST_SETTINGS: Homo sapiens
Each record is given class 1 if its reported IC50 is strictly below 200 nM. Records at or above 200 nM are given class 0.

N#CCCCc1cc2cccc3c2c(n1)-c1ccccc1N3: class 0
c1ccc2c(c1)Nc1cccc3ccnc-2c13: class 0
COc1cccc2c1C(=O)c1c(O)c3c(c(O)c1C2=O)C[C@@](O)(C(=O)CO)C[C@@H]3O[C@H]1C[C@H](N)[C@H](O)[C@H](C)O1: class 1
N#CCCCc1cnc2c3c(cccc13)Nc1ccccc1-2: class 0
COc1cc([C@@H]2c3cc4c(cc3[C@@H](O[C@@H]3O[C@@H]5CO[C@@H](C)O[C@H]5[C@H](O)[C@H]3O)[C@H]3COC(=O)[C@H]23)OCO4)cc(OC)c1O [ETOPOSIDE]: class 1

Given `Cc1ccc2c(c1)-c1cccc3nc4ccccc4c(c13)N2` , is recorded IC50 strictly lower than 200 nM? class 0

Could you please tell me whether IC50 recorded for `c1ccc2c(c1)Nc1c3ccccc3nc3cccc-2c13` is less than 200 nM? class 0

Is 200 nM strictly greater than the molecule's reported IC50? molecule: `c1ccc2c(c1)Nc1cccc3cc4[n+](c-2c13)CCC4` class 1

Answer whether the molecule `COc1cc(NS(C)(=O)=O)ccc1Nc1c2ccccc2nc2ccccc12` has IC50 strictly less than 200 nM class 1

Does the reported IC50 of the following molecule sit strictly below 200 nM? `Nc1ccc2c(c1)Nc1c3ccccc3nc3cccc-2c13` class 1

I wonder whether `Clc1ccc2c(c1)-c1cccc3nc4ccccc4c(c13)N2` has IC50 below 200 nM. Can you tell? class 0

====

Quick reference for IC50 among some compounds
Tested on: MCF7
ASSAY_EXPLANATION: Inhibitory activity against MCF7wt cell line using MTT assay
Format: functional, cell-based
TEST_SETTINGS: Homo sapiens
Provide the reading as a plain figure in nM.

Reference set, count: 5
c1ccc2c(c1)Nc1cccc3cc4[n+](c-2c13)CCC4: 150
COc1cc(NS(C)(=O)=O)ccc1Nc1c2ccccc2nc2ccccc12 [AMSACRINE]: 75
Clc1ccc2c(c1)-c1cccc3nc4ccccc4c(c13)N2: 1670
Cc1ccc2c(c1)-c1cccc3nc4ccccc4c(c13)N2: 180
Nc1ccc2c(c1)Nc1c3ccccc3nc3cccc-2c13: 50

Fill in the blank: the reported IC50 of `N#CCCCc1cnc2c3c(cccc13)Nc1ccccc1-2` is ____. 270

Requested read-out: IC50. Entry: `c1ccc2c(c1)Nc1c3ccccc3nc3cccc-2c13` 270

====

Test system: MDA-MB-231
ASSAY_EXPLANATION: Inhibitory activity against MDA-231 cell line using MTT assay (ER-,EGFR+,mutant p53)
Format: functional, cell-based
TEST_SETTINGS: Homo sapiens
OBSERVED_PROPERTY: IC50 (nM)
# unit: nM | format: bare number

Consider the reported IC50 for these compounds:
N#CCCCc1cc2cccc3c2c(n1)-c1ccccc1N3: 2050
c1ccc2c(c1)Nc1cccc3cc4[n+](c-2c13)CCC4: 190
COc1cc([C@@H]2c3cc4c(cc3[C@@H](O[C@@H]3O[C@@H]5CO[C@@H](C)O[C@H]5[C@H](O)[C@H]3O)[C@H]3COC(=O)[C@H]23)OCO4)cc(OC)c1O [ETOPOSIDE]: 150
c1ccc2c(c1)Nc1cccc3ccnc-2c13: 1730
Nc1ccc2c(c1)Nc1c3ccccc3nc3cccc-2c13: 230

Moving on to the next compound.
Entry `COc1cc(NS(C)(=O)=O)ccc1Nc1c2ccccc2nc2ccccc12` : reported IC50 = ? 140

====

Tested on: NCI-H322M
ASSAY_EXPLANATION: Inhibitory activity against NCI-H322 cell line using MTT assay(mutant p53)
Format: functional, cell-based
TEST_SETTINGS: Homo sapiens
Classify: true (1) when IC50 is strictly less than 800 nM; false (0) when IC50 is not.

Below are worked cases with known answers.
c1ccc2c(c1)Nc1c3ccccc3nc3cccc-2c13: true (1)
COc1cccc2c1C(=O)c1c(O)c3c(c(O)c1C2=O)C[C@@](O)(C(=O)CO)C[C@@H]3O[C@H]1C[C@H](N)[C@H](O)[C@H](C)O1 [DOXORUBICIN]: true (1)

Criterion: IC50 strictly below 800 nM. Is it met by `c1ccc2c(c1)Nc1cccc3ccnc-2c13` ? false (0)

====

Tested on: T47D
ASSAY_EXPLANATION: Inhibitory activity against T47D cell line using MTT assay (ER+,mutant p53)
Type: functional, cell-based
TEST_SETTINGS: Homo sapiens
OBSERVED_PROPERTY: pIC50
// pIC50 is dimensionless: -log10 of concentration (M)

Nc1ccc2c(c1)Nc1c3ccccc3nc3cccc-2c13: 6.57
c1ccc2c(c1)Nc1cccc3cc4[n+](c-2c13)CCC4: 6.80
Clc1ccc2c(c1)-c1cccc3nc4ccccc4c(c13)N2: 5.26
COc1cc(NS(C)(=O)=O)ccc1Nc1c2ccccc2nc2ccccc12: 6.66
Cc1ccc2c(c1)-c1cccc3nc4ccccc4c(c13)N2: 5.67

I'd like to know its pIC50. The compound in question is `c1ccc2c(c1)Nc1c3ccccc3nc3cccc-2c13` 6.16

Value lookup for pIC50; key = COc1cc([C@@H]2c3cc4c(cc3[C@@H](O[C@@H]3O[C@@H]5CO[C@@H](C)O[C@H]5[C@H](O)[C@H]3O)[C@H]3COC(=O)[C@H]23)OCO4)cc(OC)c1O [ETOPOSIDE] 6.80

Please look up its pIC50: `c1ccc2c(c1)Nc1cccc3ccnc-2c13` 5.68

What does the data say about its pIC50? Entry: `COc1cccc2c1C(=O)c1c(O)c3c(c(O)c1C2=O)C[C@@](O)(C(=O)CO)C[C@@H]3O[C@H]1C[C@H](N)[C@H](O)[C@H](C)O1` 8.15

What value of pIC50 has been recorded for this entry: `N#CCCCc1cc2cccc3c2c(n1)-c1ccccc1N3` 5.44

State the recorded pIC50 for this entry: `N#CCCCc1cnc2c3c(cccc13)Nc1ccccc1-2` 5.88

====

Recorded IC50, one value per entry.
System: NCI-H460
ASSAY_EXPLANATION: Inhibitory activity against H460pv8 cell line using MTT assay
Format: functional, cell-based
TEST_SETTINGS: Homo sapiens
Give just the number in µM; leave the unit off.

I would be grateful if you could share the reported IC50 for `N#CCCCc1cc2cccc3c2c(n1)-c1ccccc1N3` . 1.12

Bench note: what IC50 did `c1ccc2c(c1)Nc1cccc3ccnc-2c13` show? 1.1

====

In this section we review reported log10 IC50 values for a set of compounds.
Tested on: MDA-MB-231
ASSAY_EXPLANATION: Inhibitory activity against MDA-231 cell line using MTT assay (ER-,EGFR+,mutant p53)
Format: functional, cell-based
TEST_SETTINGS: Homo sapiens
Remember, log10 of IC50, in nM.

Examples from the recorded data:
c1ccc2c(c1)Nc1c3ccccc3nc3cccc-2c13: 2.73
N#CCCCc1cnc2c3c(cccc13)Nc1ccccc1-2: 2.98
Clc1ccc2c(c1)-c1cccc3nc4ccccc4c(c13)N2: 3.74
Cc1ccc2c(c1)-c1cccc3nc4ccccc4c(c13)N2: 2.74

Pending compound:
Reported log10 IC50, compound `COc1cccc2c1C(=O)c1c(O)c3c(c(O)c1C2=O)C[C@@](O)(C(=O)CO)C[C@@H]3O[C@H]1C[C@H](N)[C@H](O)[C@H](C)O1` : ____ 0.78

====

Test system: NCI-H322M
ASSAY_EXPLANATION: Inhibitory activity against NCI-H322 cell line using MTT assay(mutant p53)
Format: functional, cell-based
TEST_SETTINGS: Homo sapiens
pIC50: −log10 of the molar value.
Label rule, in plain words: pIC50 of 6 and up is condition met, under 6 is condition not met.

Field: example entries. Status: answers known.
COc1cc([C@@H]2c3cc4c(cc3[C@@H](O[C@@H]3O[C@@H]5CO[C@@H](C)O[C@H]5[C@H](O)[C@H]3O)[C@H]3COC(=O)[C@H]23)OCO4)cc(OC)c1O [ETOPOSIDE]: condition not met
Nc1ccc2c(c1)Nc1c3ccccc3nc3cccc-2c13: condition met
N#CCCCc1cnc2c3c(cccc13)Nc1ccccc1-2: condition not met
c1ccc2c(c1)Nc1cccc3cc4[n+](c-2c13)CCC4: condition met
Clc1ccc2c(c1)-c1cccc3nc4ccccc4c(c13)N2: condition not met

Say whether `COc1cc(NS(C)(=O)=O)ccc1Nc1c2ccccc2nc2ccccc12` shows pIC50 of 6 or more. condition met

====

Test system: NCI-H460
ASSAY_EXPLANATION: Inhibitory activity against H460pv8 cell line using MTT assay
Format: functional, cell-based
TEST_SETTINGS: Homo sapiens
Reported pIC50 values are given for each entry in this list.
Scale: pIC50 equals -log10([C]), with [C] in mol/L.

Solved entries:
Clc1ccc2c(c1)-c1cccc3nc4ccccc4c(c13)N2: 5.42
COc1cc(NS(C)(=O)=O)ccc1Nc1c2ccccc2nc2ccccc12: 6.70
Nc1ccc2c(c1)Nc1c3ccccc3nc3cccc-2c13: 7.30

What measured pIC50 goes with `c1ccc2c(c1)Nc1cccc3cc4[n+](c-2c13)CCC4` ? 6.89
